Record set of AC50 for target or system Motilin receptor (Homo sapiens). Note: assay procedure not described here.

Cc1ncc2n1-c1ccc(Cl)cc1C(c1ccccc1F)=NC2 = > 10 µM
Cc1cc2cc3c(C)cc(=O)oc3c(C)c2o1 = > 10 µM
OCc1cc(C(O)CNCCCCCCOCCCCc2ccccc2)ccc1O (stereo unspecified) = > 10 µM
CCN(CC)CCNC(=O)c1c(C)[nH]c(/C=C2\C(=O)Nc3ccc(F)cc32)c1C = 7.3 µM

Observed AC50, Motilin receptor (Homo sapiens), CCOC(=O)C1=C(C)NC(C)=C(C(=O)OC)C1c1cccc([N+](=O)[O-])c1 (stereo unspecified) : > 10 µM

Observed AC50, Motilin receptor (Homo sapiens), `CC(=O)SC[C@@H](C)C(=O)N1CCC[C@H]1C(=O)N[C@@H](Cc1ccccc1)C(=O)O` : > 30 µM

Observed AC50, Motilin receptor (Homo sapiens), `O=C1CN(/N=C/c2ccc(-c3ccc([N+](=O)[O-])cc3)o2)C(O)=N1` : > 10 µM

Observed AC50, Motilin receptor (Homo sapiens), CCCN[C@H]1CCc2nc(N)sc2C1 [PRAMIPEXOLE] : > 10 µM

Observed AC50, Motilin receptor (Homo sapiens), `Cc1cc(C(C)(C)C)cc(C)c1CC1=NCCN1` : > 30 µM

Observed AC50, Motilin receptor (Homo sapiens), C#C[C@]1(OC(C)=O)CC[C@H]2[C@@H]3CCC4=C/C(=N/O)CC[C@@H]4[C@H]3CC[C@@]21CC [NORGESTIMATE] : > 30 µM

Observed AC50, Motilin receptor (Homo sapiens), CC1=C(C)C(=O)C(C(CCCCCC(=O)O)c2ccccc2)=C(C)C1=O (stereo unspecified) : > 30 µM

====

Biological target: UniProtKB Q12809
Sequence (Q12809 whole entry): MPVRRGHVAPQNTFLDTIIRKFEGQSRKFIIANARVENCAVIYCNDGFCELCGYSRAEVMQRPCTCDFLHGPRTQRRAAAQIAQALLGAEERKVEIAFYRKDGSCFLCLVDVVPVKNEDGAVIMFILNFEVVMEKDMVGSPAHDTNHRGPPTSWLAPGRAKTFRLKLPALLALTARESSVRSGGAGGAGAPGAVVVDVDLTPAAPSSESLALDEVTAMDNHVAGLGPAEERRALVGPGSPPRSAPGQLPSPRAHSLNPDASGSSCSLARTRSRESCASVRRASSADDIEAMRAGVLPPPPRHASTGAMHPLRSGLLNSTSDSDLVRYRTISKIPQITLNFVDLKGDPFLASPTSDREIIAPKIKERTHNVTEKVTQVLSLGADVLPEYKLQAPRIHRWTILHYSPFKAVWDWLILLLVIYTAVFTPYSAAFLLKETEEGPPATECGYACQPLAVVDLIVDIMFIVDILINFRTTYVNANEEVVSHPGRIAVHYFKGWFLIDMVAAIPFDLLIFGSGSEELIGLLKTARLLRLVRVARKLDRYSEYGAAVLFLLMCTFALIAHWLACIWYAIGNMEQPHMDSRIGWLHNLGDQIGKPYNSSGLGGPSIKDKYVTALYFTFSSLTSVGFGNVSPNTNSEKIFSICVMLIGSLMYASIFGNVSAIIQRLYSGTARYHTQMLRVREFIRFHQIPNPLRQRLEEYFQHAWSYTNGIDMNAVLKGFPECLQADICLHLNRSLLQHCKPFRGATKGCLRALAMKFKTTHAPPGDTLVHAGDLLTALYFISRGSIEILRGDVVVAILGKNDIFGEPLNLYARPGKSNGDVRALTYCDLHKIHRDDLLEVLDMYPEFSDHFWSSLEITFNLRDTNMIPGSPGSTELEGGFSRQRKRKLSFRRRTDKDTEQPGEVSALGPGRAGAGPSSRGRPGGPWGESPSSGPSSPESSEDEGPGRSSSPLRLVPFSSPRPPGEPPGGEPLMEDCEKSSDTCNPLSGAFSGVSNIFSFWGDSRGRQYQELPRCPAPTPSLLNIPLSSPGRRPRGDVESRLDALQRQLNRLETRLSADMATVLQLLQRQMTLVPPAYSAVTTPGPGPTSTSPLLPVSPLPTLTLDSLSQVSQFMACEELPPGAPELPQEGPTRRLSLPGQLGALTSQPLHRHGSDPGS
Format: functional
Quick reference: AC50 of the listed items.

Record excerpt, results attached:
C[C@]1(Cn2ccnn2)[C@H](C(=O)O)N2C(=O)C[C@H]2S1(=O)=O = > 30 µM
CC[C@H]1OC(=O)[C@H](C)C(=O)[C@H](C)[C@@H](O[C@@H]2O[C@H](C)C[C@H](N(C)C)[C@H]2O)[C@](C)(OC)C[C@@H](C)C(=O)[C@H](C)[C@H]2N(CCCCn3cnc(-c4cccnc4)c3)C(=O)O[C@]12C = > 30 µM

Next up:
Lab note: CCCC(CCC)C(N)=O [VALPROMIDE] gave AC50 of > 30 µM

====

Record set of AC50 for target or system Neuronal acetylcholine receptor subunit alpha-4 (Homo sapiens). Note: assay procedure not described here.

Record excerpt, results attached:
CC(=O)[C@@]1(O)CC[C@H]2[C@@H]3C=C(Cl)C4=CC(=O)[C@@H]5C[C@@H]5[C@]4(C)[C@H]3CC[C@@]21C [CYPROTERONE] = > 10 µM
CN1CCN(C2=Nc3ccccc3Oc3ccc(Cl)cc32)CC1 [LOXAPINE] = > 10 µM
C=CCNc1nc(NCC=C)nc(N2CCN(C(c3ccc(F)cc3)c3ccc(F)cc3)CC2)n1 [ALMITRINE] = > 30 µM
C/C(=C\C(=O)OCCCCCCCCC(=O)O)C[C@@H]1OC[C@H](C[C@@H]2O[C@H]2[C@@H](C)[C@H](C)O)[C@@H](O)[C@H]1O [MUPIROCIN] = > 10 µM
Clc1ccc2c(N3CCN(CCCN4CCN(c5ccnc6cc(Cl)ccc56)CC4)CC3)ccnc2c1 [PIPERAQUINE] = > 30 µM
CN(C)CCc1c[nH]c2ccc(Cn3cncn3)cc12 [RIZATRIPTAN] = > 10 µM

Observed AC50, Neuronal acetylcholine receptor subunit alpha-4 (Homo sapiens), `CC(=O)SC[C@@H](C)C(=O)N1CCC[C@H]1C(=O)N[C@@H](Cc1ccccc1)C(=O)O` : > 30 µM

Observed AC50, Neuronal acetylcholine receptor subunit alpha-4 (Homo sapiens), CCOC(=O)O[C@]1(C(=O)OCCl)CC[C@H]2[C@@H]3CCC4=CC(=O)C=C[C@]4(C)[C@H]3[C@@H](O)C[C@@]21C [LOTEPREDNOL ETABONATE] : > 30 µM

Observed AC50, Neuronal acetylcholine receptor subunit alpha-4 (Homo sapiens), CC12CC3CC(C)(C1)CC(N)(C3)C2 [MEMANTINE] : > 10 µM
